Test system: hGH promoter
Assay: hGH promoter/luciferase reporter assay (high-throughput screen I), 532 cells
Type: cell-based, rat
Conditions: transcriptional inhibitors, Table 2; 6 h incubation
Label Criterion met when hGH fold inhibition relative to solvent control is at or above 5 fold; otherwise label Criterion not met.

compound	class label
O=c1[nH]c(=O)c2nc3ccccc3nc2[nH]1	Criterion met
O=C(O)CC1NC(=O)NC1=O (stereo not shown)	Criterion not met
CN(C)c1ccc(C(=N)c2ccc(N(C)C)cc2)cc1	Criterion not met
NC(=O)c1ccccc1O	Criterion not met
Cc1cc(C)nc(NS(=O)(=O)c2ccc(N)cc2)n1	Criterion not met
OCc1cccc(Cl)c1	Criterion not met
c1ccc(-c2nccnc2-c2ccccn2)nc1	Criterion met
Cc1ccc(P(CCP(c2ccc(C)cc2)c2ccc(C)cc2)c2ccc(C)cc2)cc1	Criterion met
O=C(O)c1ccc(Br)o1	Criterion met

* * *

Tested on: G-CSF promoter
Assay: G-CSF promoter/luciferase reporter assay (high-throughput screen I), G21 cells
Settings: transcriptional inhibitors, Table 2; 6 h incubation
assay endpoint: GCSF fold inhibition relative to solvent control (fold)

compound	experimental system	reported
Cc1cc(=O)oc2cc(OCC(=O)O)ccc12 [Chemical 1764]	G-CSF promoter	0.55
N#Cc1ccc(Br)cc1 [Chemical 1704]	G-CSF promoter	0.77
O=S(=O)(O)c1ccc2c(N=Nc3ccc(S(=O)(=O)O)c4ccccc34)c(O)c(S(=O)(=O)O)cc2c1 [Chemical 512]	G-CSF promoter	0.81
C(=Cc1ccccn1)c1ccccn1 [Chemical 1640]	G-CSF promoter	0.79

* * *

MMTV fold inhibition relative to solvent control overview
Tested on: MMTV promoter
Assay: MMTV promoter/luciferase reporter assay (high-throughput screen I, control for specificity), M10 cells
Format: cell-based, mouse
Details: transcriptional inhibitors, Table 2; 6 h incubation
assay endpoint: MMTV fold inhibition relative to solvent control (fold)

compound	reported
CN(C)c1ccc(C(=N)c2ccc(N(C)C)cc2)cc1	0.70
Cc1c(C(=O)O)c(O)cc2c1C(=O)c1c(O)c([C@@H]3O[C@H](CO)[C@@H](O)[C@H](O)[C@H]3O)c(O)c(O)c1C2=O [Chemical 1770]	0.57
O=C(c1ccccc1)c1ccc(Br)cc1	0.62
O=c1[nH]c(=O)c2nc3ccccc3nc2[nH]1	0.58
O=S(=O)(O)c1ccc(-c2nnc(-c3ccnc(-c4nnc(-c5ccc(S(=O)(=O)O)cc5)c(-c5ccc(S(=O)(=O)O)cc5)n4)c3)nc2-c2ccc(S(=O)(=O)O)cc2)cc1	0.97
Cc1cc(C)nc(NS(=O)(=O)c2ccc(N)cc2)n1	0.79
CC1=CC(=C(c2cc(C)c(O)c(C(=O)O)c2)c2c(Cl)ccc(S(=O)(=O)O)c2Cl)C=C(C(=O)O)C1=O	0.87
CC1(C)[C@H]2CC[C@]1(C)[C@H](O)C2	0.99
OCc1cccc(Cl)c1	1.14
Cc1c(C(=O)O)c(O)cc2c1C(=O)c1c(O)c([C@@H]3O[C@H](CO)[C@@H](O)[C@H](O)[C@H]3O)c(O)c(O)c1C2=O [Chemical 240]	0.80
Cc1cc(=O)oc2cc(OCC(=O)O)ccc12	0.82
COC(=O)CP(=O)(OCC(F)(F)F)OCC(F)(F)F	0.70
NCCC(=O)N[C@@H](Cc1cnc[nH]1)C(=O)O	0.72
Cc1cc(C2(c3cc(C)c(O)c(CN(CC(=O)O)CC(=O)O)c3)OC(=O)c3ccccc32)cc(CN(CC(=O)O)CC(=O)O)c1O	0.67
Cc1n[nH]c(C)c1Br	0.64
O=C(O)CC1NC(=O)NC1=O (centres unmarked)	0.74
CC1(C)[C@H]2CC[C@]1(C)C(=O)C2	0.66
O=c1c(O)c(-c2ccc(O)cc2O)oc2cc(O)cc(O)c12	0.89
O=P(O)(O)Oc1c[nH]c2ccc(Br)c(Cl)c12	0.86
Nc1nc2c(nc(Br)n2[C@@H]2O[C@H](CO)[C@@H](O)[C@H]2O)c(=O)[nH]1	0.81
Nc1c(O)c(S(=O)(=O)O)c(O)c2c1C(=O)c1ccccc1C2=O	0.59
CC(=O)NCCCC[C@H](NC(C)=O)C(=O)O	0.68
Cc1n[nH]cc1Br	1.23
N#Cc1cccc(Br)c1	0.90
Cc1cc(=O)oc2c(CN(CC(=O)O)CC(=O)O)c(O)ccc12	0.94
N#Cc1ccc(Br)cc1	0.94

* * *

System: MMTV promoter
Assay: MMTV promoter/luciferase reporter assay (high-throughput screen I, control for specificity), M10 cells
Format: cell-based, mouse
Details: transcriptional activators, Table 2; original high-throughput assay; 6 h incubation
MMTV fold induction relative to solvent control overview
assay endpoint: MMTV fold induction relative to solvent control (fold)

molecule	reported
O=NN(O)c1ccccc1 [Chemical #1783, Cupferron]	0.89
O=C1CCCCC1Cl (stereo not drawn) [Chemical 2148]	2.82
O=C(O)C1CCC1 [Chemical 1804]	0.49
CC(=O)c1ccc[nH]1 [Chemical 70]	0.85
CCOC(=O)c1c[nH]c(=S)[nH]c1=O [Chemical 1740]	0.87
ClCc1ccc(Cl)cc1 [Chemical 2129]	0.95
Nc1ncnc2c1nc(Br)n2[C@@H]1O[C@H](CO)[C@@H](O)[C@H]1O [Chemical 1583]	0.88
Nc1nccs1 [Chemical 1550]	0.87
COc1c(F)cc(Br)cc1[N+](=O)[O-] [Chemical 2030]	0.87
c1ncncn1 [Chemical 473]	0.87
Nc1c(Cl)ncnc1Cl [Chemical 1269]	2.18
ClCCN1CCCCC1 [Chemical 254]	0.98
CCCCCCCCCCCCCCCC(=O)OCC(COC(=O)CCCCCCCCCCCCCCC)OC(=O)CCCCCCCCCCCCCCC [Chemical 856]	0.42
CCn1c(=O)[nH]c2ccccc21 [Chemical 322]	1.12
NC(=O)N1c2ccccc2CCc2ccccc21 [Chemical 299]	0.47
O=c1c(O)c(-c2ccc(O)c(O)c2)oc2cc(O)ccc12 [Chemical 325]	1.0
Cc1c(C2(c3cc(Br)c(O)c(Br)c3C)OS(=O)(=O)c3ccccc32)cc(Br)c(O)c1Br [Chemical 1251]	0.33
Cc1ccc(N)c(S(=O)(=O)O)c1 [Chemical 1376]	1.32
Nc1ccc2c(c1)Cc1ccccc1-2 [Chemical 1316]	2.33
CC1(C)O[C@@H]2C[C@H]3[C@@H]4CCC5=CC(=O)C=C[C@]5(C)[C@@]4(F)[C@@H](O)C[C@]3(C)[C@]2(C(=O)CO)O1 [Chemical 848]	2.43
CON(C)C(=O)Nc1ccc(Cl)cc1 [Chemical 552]	0.86

* * *

System: hGH promoter
Assay: hGH promoter/luciferase reporter assay (high-throughput screen I), 532 cells
Type: cell-based, rat
Conditions: transcriptional activators, Table 2; 6 h incubation
t if hGH fold induction relative to solvent control is below 0.7 fold. f if not; exact matches included in f.

smiles text	class label
Cc1cc(N)sn1	t
NCc1ccc(S(N)(=O)=O)cc1	t
N=c1cc2oc3cc(N)ccc3nc-2c2ccccc12	t
Nc1ccc(SSc2ccc(N)cc2)cc1	t
CN(C)c1ccc2cc3ccc(N(C)C)cc3nc2c1	t
NC1=NCCS1	f
O=C(N[C@H](CO)[C@H](O)c1ccc([N+](=O)[O-])cc1)C(Cl)Cl	t
CCn1c(=O)[nH]c2ccccc21	f
O=C1OC2(c3cc(I)c(O)c(I)c3Oc3c2cc(I)c(O)c3I)c2c(Cl)c(Cl)c(Cl)c(Cl)c21	f
Cc1ccc(N)c(S(=O)(=O)O)c1	t
c1ncncn1	t
